Test system: SR leukemia
experiment.summary: NCI tumour cell line growth inhibition, 48 h
observable: TGI

[
  {
    "molecule": "Cc1cc(C(=O)Nc2ncc(Cc3cccc(C(F)(F)F)c3)s2)c2ccccc2n1",
    "measured.on": "SR leukemia",
    "TGI": "> 100 µM"
  }
]

Sample Cc1cn(C2CC(N(O)Cc3ccccc3)C(CO[Si](C)(C)C(C)(C)C)O2)c(=O)[nH]c1=O (centres undefined) ; TGI observed: 89.4 µM

Sample "O=C(N/N=C/c1ccc(Cl)cc1)c1ccc(C(F)(F)F)nc1Nc1cccc(C(F)(F)F)c1" ; TGI observed: 5.71 µM

Sample "Oc1ccccc1C(Sc1nc2ccccc2s1)Sc1nc2ccccc2s1" ; TGI observed: > 100 µM
